Reported Potency values follow for various compounds
assay: qHTS of pediatric cancer cell lines to identify multiple opportunities for drug repurposing: Confirmatory screen for A673 cells (AID 1347110); details: A673 Ewing sarcoma cell viability;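 note: potency is the fitted concentration of half-maximal effect; cells exposed to compound for 48 h before the viability read; nearly all actives have a fitted effect of over 65% in size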
Results filed as inconclusive are left out. Calls of active or inactive are those of the source. Calls come from the whole dose curve; as a rule, active = well fitted cell-killing curve with a large enough effect; inconclusive = small, poorly fitted or top-dose-only effect; inactive = flat fitted curve, though single readings scatter.

// known answers, use as guide
COc1cccc2c1C(=O)c1c(O)c3c(c(O)c1C2=O)C[C@@](O)(C(=O)CO)C[C@@H]3O[C@H]1C[C@H](N)[C@H](O[C@@H]2CCCCO2)[C@H](C)O1 :: 3290 nM (active)
COC(=O)Nc1nc2ccc(C(=O)C3CC3)cc2[nH]1 :: 1310 nM (active)
COC(=O)c1nc(Cl)c(Cl)nc1N :: 293 nM (active)
[O-][n+]1ccccc1SSc1cccc[n+]1[O-] :: 1620 nM (active)
CN(C)c1ccc(C(=C2C=CC(=[N+](C)C)C=C2)c2ccccc2)cc1 :: 293 nM (active)

Let us move to another entry and its Potency.
Give the measured Potency of `CCOC(=O)c1ccccc1O` . 3290 nM (active)
